Target: Calpain-1 catalytic subunit (Homo sapiens, UniProt P07384)
Assay: In vitro inhibitory activity against recombinant human calpain 1
Listing: IC50 of selected compounds
measure: IC50 (nM)

• CCCCNC(=O)C(=O)[C@H](CC(C)C)NC(=O)C1Cc2cc3c(cc2S(=O)(=O)N1CC)OCCO3 (single isomer, unassigned; form 2) = 1000
• CCN1C(C(=O)N[C@@H](Cc2ccccc2)C(=O)C(=O)NCCc2ccccc2)Cc2cc3c(cc2S1(=O)=O)OCCO3 (some centres not stated) = 63
• CCN1C(C(=O)N[C@@H](Cc2ccccc2)C(=O)C(=O)OC)Cc2cc3c(cc2S1(=O)=O)OCCO3 (some centres not stated) = 1000
• CCN1C(C(=O)N[C@@H](Cc2ccccc2)C(=O)C(=O)NCCOC)Cc2cc3c(cc2S1(=O)=O)OCCO3 (some centres not stated) = 200
• CCN1C(C(=O)N[C@@H](Cc2ccccc2)C(=O)C(=O)NCCCN2CCOCC2)Cc2cc3c(cc2S1(=O)=O)OCCO3 (some centres not stated) = 195
• C=CCNC(=O)C(=O)[C@H](Cc1ccccc1)NC(=O)C1Cc2cc3c(cc2S(=O)(=O)N1CC)OCCO3 (some centres not stated) = 200
• CCCCNC(=O)C(=O)[C@H](CC(C)C)NC(=O)C1Cc2cc3c(cc2S(=O)(=O)N1CC)OCCO3 (single isomer, unassigned; form 1) = 500

----------
Listing: IC50 of selected compounds
Target: Calpain-1 catalytic subunit (Homo sapiens)
Sequence (P07384 whole entry): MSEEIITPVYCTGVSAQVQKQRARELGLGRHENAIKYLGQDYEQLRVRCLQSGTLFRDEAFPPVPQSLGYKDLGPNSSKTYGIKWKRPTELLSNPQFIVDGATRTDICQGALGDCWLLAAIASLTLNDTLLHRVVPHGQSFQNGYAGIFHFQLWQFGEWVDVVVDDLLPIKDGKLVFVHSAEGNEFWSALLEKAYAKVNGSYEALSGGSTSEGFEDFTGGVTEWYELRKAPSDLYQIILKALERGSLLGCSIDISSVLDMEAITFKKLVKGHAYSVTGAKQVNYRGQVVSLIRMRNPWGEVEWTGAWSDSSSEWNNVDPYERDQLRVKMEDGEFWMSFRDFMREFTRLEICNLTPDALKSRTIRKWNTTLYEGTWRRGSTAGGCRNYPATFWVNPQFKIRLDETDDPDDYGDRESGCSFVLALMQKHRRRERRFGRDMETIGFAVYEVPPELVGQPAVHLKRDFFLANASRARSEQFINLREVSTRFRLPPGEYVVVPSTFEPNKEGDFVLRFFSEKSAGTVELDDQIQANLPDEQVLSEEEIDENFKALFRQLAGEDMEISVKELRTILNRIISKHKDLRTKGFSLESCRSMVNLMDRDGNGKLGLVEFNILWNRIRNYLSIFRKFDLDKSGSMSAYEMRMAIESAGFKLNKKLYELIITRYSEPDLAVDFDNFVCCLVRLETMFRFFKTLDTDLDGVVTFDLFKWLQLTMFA
Test: In vitro inhibitory activity against human calpain 1 in Molt-4 cells (intact human T-cell leukemia cell line)
Assay type: cell-based
measure: IC50 (µM)

- CCN1C(C(=O)N[C@@H](Cc2ccccc2)C(=O)C(=O)NCCNS(=O)(=O)c2ccc(-c3ccccn3)s2)Cc2cc3c(cc2S1(=O)=O)OCCO3 (some centres not stated): 1.3
- CCN1C(C(=O)N[C@@H](Cc2ccccc2)C(=O)C(=O)NCCCNS(=O)(=O)c2ccc([N+](=O)[O-])cc2)Cc2cc3c(cc2S1(=O)=O)OCCO3 (some centres not stated): 3.6
- CCN1C(C(=O)N[C@@H](Cc2ccccc2)C(=O)C(=O)NCCNS(=O)(=O)c2ccc(F)cc2)Cc2cc3c(cc2S1(=O)=O)OCCO3 (some centres not stated): 2
- CCN1C(C(=O)N[C@@H](Cc2ccccc2)C(=O)C(=O)NCCNS(=O)(=O)c2ccc([N+](=O)[O-])cc2)Cc2cc3c(cc2S1(=O)=O)OCCO3 (some centres not stated): 4.2
- CCN1C(C(=O)N[C@@H](Cc2ccccc2)C(=O)C(=O)NCCNS(=O)(=O)c2ccccc2)Cc2cc3c(cc2S1(=O)=O)OCCO3 (some centres not stated): 5
- CCN1C(C(=O)N[C@@H](Cc2ccccc2)C(=O)C(=O)NCCCNS(=O)(=O)c2ccccc2)Cc2cc3c(cc2S1(=O)=O)OCCO3 (some centres not stated): 2.7
- CCN1C(C(=O)N[C@@H](Cc2ccccc2)C(=O)C(=O)NCCCNS(=O)(=O)c2ccc(F)cc2)Cc2cc3c(cc2S1(=O)=O)OCCO3 (some centres not stated): 2.4

----------
Target: Calpain-1 catalytic subunit (Homo sapiens, UniProt P07384)
Sequence (P07384 whole entry): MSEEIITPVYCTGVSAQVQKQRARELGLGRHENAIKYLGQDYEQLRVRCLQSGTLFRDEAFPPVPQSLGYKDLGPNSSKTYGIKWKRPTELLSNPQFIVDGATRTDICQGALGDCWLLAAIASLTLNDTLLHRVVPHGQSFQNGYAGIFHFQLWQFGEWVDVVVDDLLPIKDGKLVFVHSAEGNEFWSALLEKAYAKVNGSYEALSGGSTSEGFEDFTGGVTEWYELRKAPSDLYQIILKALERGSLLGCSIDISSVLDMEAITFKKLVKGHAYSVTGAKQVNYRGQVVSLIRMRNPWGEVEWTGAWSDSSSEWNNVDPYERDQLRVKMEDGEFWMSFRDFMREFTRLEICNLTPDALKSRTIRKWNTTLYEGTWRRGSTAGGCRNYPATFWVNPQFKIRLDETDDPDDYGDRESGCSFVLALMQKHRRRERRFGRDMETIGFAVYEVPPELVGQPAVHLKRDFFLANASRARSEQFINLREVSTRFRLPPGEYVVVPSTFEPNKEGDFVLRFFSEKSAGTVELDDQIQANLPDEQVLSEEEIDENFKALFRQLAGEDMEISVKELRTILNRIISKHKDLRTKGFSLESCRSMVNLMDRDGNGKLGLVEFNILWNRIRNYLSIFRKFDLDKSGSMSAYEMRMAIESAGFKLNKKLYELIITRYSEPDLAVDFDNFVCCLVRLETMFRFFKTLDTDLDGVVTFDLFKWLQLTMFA
Assay: In vitro inhibitory activity against human calpain I; Not determined
measure: IC50 (nM)

* CCN1C(C(=O)N[C@H](C=O)Cc2ccccc2)Cc2cc(Cl)ccc2S1(=O)=O (stereo partly specified) | 5

----------
Target: Calpain-1 catalytic subunit (Homo sapiens)
Sequence (P07384 whole entry): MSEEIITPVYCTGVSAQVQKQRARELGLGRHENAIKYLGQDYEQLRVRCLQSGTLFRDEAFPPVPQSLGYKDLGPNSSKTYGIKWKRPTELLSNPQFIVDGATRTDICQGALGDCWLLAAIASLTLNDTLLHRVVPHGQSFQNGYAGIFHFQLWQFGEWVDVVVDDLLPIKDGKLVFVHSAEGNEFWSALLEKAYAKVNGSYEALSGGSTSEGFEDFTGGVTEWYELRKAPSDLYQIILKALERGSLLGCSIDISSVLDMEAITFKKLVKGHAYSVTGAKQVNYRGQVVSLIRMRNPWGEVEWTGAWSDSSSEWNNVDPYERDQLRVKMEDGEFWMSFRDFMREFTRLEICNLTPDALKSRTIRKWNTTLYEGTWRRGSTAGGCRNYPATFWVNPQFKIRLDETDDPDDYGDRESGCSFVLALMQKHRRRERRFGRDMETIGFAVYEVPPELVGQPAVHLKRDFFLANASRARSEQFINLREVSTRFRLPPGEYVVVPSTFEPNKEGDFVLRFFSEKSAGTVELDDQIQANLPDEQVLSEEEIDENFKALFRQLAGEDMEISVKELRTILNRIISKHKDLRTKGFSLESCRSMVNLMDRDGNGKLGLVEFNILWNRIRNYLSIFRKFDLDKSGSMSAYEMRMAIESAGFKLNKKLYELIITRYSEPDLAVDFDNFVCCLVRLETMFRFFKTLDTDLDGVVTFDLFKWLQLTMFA
Assay: In vitro inhibitory activity against recombinant human calpain 1
pIC50: −log10 of the molar value.
Listing: pIC50 of selected compounds
measure: pIC50

• CCN1C(C(=O)N[C@@H](Cc2ccccc2)C(=O)C(=O)NCCCN2CCCC2=O)Cc2cc3c(cc2S1(=O)=O)OCCO3 (stereo partly drawn) = 6.30
• O=C[C@H](Cc1ccccc1)NC(=O)C1Cc2ccccc2S(=O)(=O)N1 (stereo partly drawn) = 8.15
• CCN1C(C(=O)N[C@@H](Cc2ccccc2)C(=O)C(=O)NCCCn2ccnc2)Cc2cc3c(cc2S1(=O)=O)OCCO3 (stereo partly drawn) = 5.30
• CCCCCNC(=O)C(=O)[C@H](Cc1ccccc1)NC(=O)C1Cc2cc3c(cc2S(=O)(=O)N1CC)OCCO3 (stereo partly drawn) = 6.82
• CCNC(=O)C(=O)[C@H](Cc1ccccc1)NC(=O)C1Cc2cc(Cl)ccc2S(=O)(=O)N1CC (stereo partly drawn) = 6.00
• CCN1C(C(=O)N[C@@H](Cc2ccccc2)C(=O)C(=O)NCc2ccncc2)Cc2cc3c(cc2S1(=O)=O)OCCO3 (stereo partly drawn) = 6.62
• CCN1C(C(=O)N[C@@H](Cc2ccccc2)C(=O)C(=O)NCc2ccccn2)Cc2cc3c(cc2S1(=O)=O)OCCO3 (stereo partly drawn) = 6.77
• CCN1C(C(=O)N[C@@H](Cc2ccccc2)C(=O)C(=O)NC(C)C)Cc2cc3c(cc2S1(=O)=O)OCCO3 (stereo partly drawn) = 6.69
